tested_system: Cholinesterase (Homo sapiens)
Sequence (P06276 whole entry): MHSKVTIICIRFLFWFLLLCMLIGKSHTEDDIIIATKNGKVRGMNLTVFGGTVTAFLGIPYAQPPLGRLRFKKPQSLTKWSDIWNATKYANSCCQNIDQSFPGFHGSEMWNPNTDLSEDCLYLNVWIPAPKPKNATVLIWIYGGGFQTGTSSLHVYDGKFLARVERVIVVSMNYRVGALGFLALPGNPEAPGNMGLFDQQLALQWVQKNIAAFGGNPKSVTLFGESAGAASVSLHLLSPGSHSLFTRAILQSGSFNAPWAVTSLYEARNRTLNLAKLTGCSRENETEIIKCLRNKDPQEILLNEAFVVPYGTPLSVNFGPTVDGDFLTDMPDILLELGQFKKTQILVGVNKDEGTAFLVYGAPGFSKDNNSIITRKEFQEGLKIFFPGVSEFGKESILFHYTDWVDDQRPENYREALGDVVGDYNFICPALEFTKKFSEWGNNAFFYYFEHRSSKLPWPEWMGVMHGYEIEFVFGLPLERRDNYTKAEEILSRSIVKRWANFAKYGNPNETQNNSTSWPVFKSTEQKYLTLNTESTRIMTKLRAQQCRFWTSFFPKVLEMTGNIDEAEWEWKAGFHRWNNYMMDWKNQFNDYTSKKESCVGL
assay_text: Inhibition of human recombinant BuChE using butyrylthiocholine iodide as substrate preincubated for 5 mins followed by substrate addition and measured every 2 mins by DTNB-reagent based Ellman's method
property_measured: pIC50
Keep in mind that pIC50 stands for -log10 of concentration in molar terms.

In one line, give reported pIC50 of the entry CC(C)(C)c1cccc(CNCC(O)CNCCC(c2ccccc2)c2ccccc2)c1 (stereo unspecified) .
5.22

* * *

assay_text: Apparent clearance in CD-1 mouse plasma at 10 mg/kg, ip administered as single dose and measured after 15 to 240 mins by LC-MS/MS analysis
Assay type: ADME, organism-based
cond: time 15-240 min, read-out: CL(app)
property_measured: CL/F (mL/min/kg)
Give just the number in mL/min/kg; leave the unit off.

In one line, give reported CL/F of the entry O=C(CC(c1ccccc1)c1ccccc1)NCC(O)CNCC1CCCCC1 (stereo unspecified) .
577
